Biological target: PLK4 (Homo sapiens)
Construct: expressed in transfected cells; host or cells: HEK293 T cells (ATCC CRL-3216)
Sequence (O00444 1-970): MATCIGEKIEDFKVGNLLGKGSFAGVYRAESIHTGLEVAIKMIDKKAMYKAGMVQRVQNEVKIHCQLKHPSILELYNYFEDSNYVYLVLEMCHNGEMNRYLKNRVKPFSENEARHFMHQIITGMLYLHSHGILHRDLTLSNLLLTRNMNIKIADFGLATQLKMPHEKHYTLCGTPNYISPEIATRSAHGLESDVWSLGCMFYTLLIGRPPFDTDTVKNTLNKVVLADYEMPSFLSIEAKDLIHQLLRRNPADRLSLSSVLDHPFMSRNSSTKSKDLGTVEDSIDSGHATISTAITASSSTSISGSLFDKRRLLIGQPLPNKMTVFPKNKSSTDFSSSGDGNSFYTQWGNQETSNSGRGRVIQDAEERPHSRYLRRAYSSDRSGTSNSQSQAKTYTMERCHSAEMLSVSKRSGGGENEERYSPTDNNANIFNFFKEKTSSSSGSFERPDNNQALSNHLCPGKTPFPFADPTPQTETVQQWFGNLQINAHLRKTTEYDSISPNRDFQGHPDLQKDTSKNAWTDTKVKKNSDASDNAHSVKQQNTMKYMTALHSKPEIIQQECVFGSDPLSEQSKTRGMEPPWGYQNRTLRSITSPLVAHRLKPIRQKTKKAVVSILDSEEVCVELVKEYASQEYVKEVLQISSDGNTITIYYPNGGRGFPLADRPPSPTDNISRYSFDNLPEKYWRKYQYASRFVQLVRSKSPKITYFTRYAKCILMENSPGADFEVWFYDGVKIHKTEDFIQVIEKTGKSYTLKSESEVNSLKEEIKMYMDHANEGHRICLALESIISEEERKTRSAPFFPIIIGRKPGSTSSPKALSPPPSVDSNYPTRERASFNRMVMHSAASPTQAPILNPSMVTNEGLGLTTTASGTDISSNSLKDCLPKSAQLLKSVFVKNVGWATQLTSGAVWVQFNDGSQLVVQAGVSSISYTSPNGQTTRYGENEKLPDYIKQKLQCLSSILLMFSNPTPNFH
Experiment: PLK4 NanoBRET target engagement assay
Type: binding
Conditions: HEK293 T cells transfected with PLK4 NanoLuc fusion vector; K-5 tracer; 2 hrs incubation
pIC50: −log10 of the molar value.
# pIC50 >= 7 gives Y, anything below gives N

# input Please indicate if the recorded pIC50 for COCCn1cc(-c2nc(N(C)c3c(F)cc(S(C)(=O)=O)cc3F)nc(Nc3cc(C4CC4)[nH]n3)c2C2CC2)c(C)n1 meets or exceeds 7.
# output Y

From: patent US20250177396A1
